Assay: NCI Yeast Anticancer Drug Screen. Data for the mlh1 rad18 strain (AID 175)
Details: S. cerevisiae mlh1 rad18 strain growth inhibition; at 50.0 µM (retest, dose inferred, filed as 5.0); hits give high values
The panel holds about 79,000 compounds, 15% with a hit somewhere; the sample as a whole holds those more often.
Form field: growth inhibition (one value per entry).

[
  {
    "compound": "Nc1ccc(Cl)c2ccccc12",
    "uom": "%",
    "growth inhibition": 33
  },
  {
    "compound": "OC1(c2ccccc2)CCC2CCCCC2C1 (stereo not drawn)",
    "uom": "%",
    "growth inhibition": 63
  },
  {
    "compound": "S=C(N/N=C(/c1ccccc1)c1ccccn1)N1CCCCC1",
    "uom": "%",
    "growth inhibition": 98
  },
  {
    "compound": "Cc1cc(Nc2ccc(N=Nc3ccc(O)c4ncccc34)cc2)nc(C)n1",
    "uom": "%",
    "growth inhibition": 37
  },
  {
    "compound": "OCCC(CCN1CCOCC1)(c1ccccc1)C1(O)CCCC1 (stereo not drawn)",
    "uom": "%",
    "growth inhibition": -2
  },
  {
    "compound": "CC(O[Si](C)(C)C(C)(C)C)C(=O)Sc1ccccn1 (stereo not drawn)",
    "uom": "%",
    "growth inhibition": 48
  },
  {
    "compound": "O=[N+]([O-])c1cc(CNCCO)c(O)c2ncccc12",
    "uom": "%",
    "growth inhibition": 99
  },
  {
    "compound": "CCCCCCCCN(CCCCCCCC)CC(O)c1ccc2cc3c(nc2c1)CCCC3 (stereo not drawn)",
    "uom": "%",
    "growth inhibition": 96
  }
]
